experimental.target: CRBN/DDB1 (Homo sapiens (Human))
Sequence (Q96SW2 whole entry, species assumed): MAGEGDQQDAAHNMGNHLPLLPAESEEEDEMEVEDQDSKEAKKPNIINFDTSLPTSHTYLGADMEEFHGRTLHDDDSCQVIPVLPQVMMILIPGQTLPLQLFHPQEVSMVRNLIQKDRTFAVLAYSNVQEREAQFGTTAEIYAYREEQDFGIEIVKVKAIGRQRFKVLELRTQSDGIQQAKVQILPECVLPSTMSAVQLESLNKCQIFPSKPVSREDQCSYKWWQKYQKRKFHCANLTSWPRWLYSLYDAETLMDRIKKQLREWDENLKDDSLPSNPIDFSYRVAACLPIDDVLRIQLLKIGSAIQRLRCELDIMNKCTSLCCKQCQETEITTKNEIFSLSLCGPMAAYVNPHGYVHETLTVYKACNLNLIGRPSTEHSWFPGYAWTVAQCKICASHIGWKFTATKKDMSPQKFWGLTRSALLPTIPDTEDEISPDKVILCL
Sequence (Q16531 whole entry partner, species assumed): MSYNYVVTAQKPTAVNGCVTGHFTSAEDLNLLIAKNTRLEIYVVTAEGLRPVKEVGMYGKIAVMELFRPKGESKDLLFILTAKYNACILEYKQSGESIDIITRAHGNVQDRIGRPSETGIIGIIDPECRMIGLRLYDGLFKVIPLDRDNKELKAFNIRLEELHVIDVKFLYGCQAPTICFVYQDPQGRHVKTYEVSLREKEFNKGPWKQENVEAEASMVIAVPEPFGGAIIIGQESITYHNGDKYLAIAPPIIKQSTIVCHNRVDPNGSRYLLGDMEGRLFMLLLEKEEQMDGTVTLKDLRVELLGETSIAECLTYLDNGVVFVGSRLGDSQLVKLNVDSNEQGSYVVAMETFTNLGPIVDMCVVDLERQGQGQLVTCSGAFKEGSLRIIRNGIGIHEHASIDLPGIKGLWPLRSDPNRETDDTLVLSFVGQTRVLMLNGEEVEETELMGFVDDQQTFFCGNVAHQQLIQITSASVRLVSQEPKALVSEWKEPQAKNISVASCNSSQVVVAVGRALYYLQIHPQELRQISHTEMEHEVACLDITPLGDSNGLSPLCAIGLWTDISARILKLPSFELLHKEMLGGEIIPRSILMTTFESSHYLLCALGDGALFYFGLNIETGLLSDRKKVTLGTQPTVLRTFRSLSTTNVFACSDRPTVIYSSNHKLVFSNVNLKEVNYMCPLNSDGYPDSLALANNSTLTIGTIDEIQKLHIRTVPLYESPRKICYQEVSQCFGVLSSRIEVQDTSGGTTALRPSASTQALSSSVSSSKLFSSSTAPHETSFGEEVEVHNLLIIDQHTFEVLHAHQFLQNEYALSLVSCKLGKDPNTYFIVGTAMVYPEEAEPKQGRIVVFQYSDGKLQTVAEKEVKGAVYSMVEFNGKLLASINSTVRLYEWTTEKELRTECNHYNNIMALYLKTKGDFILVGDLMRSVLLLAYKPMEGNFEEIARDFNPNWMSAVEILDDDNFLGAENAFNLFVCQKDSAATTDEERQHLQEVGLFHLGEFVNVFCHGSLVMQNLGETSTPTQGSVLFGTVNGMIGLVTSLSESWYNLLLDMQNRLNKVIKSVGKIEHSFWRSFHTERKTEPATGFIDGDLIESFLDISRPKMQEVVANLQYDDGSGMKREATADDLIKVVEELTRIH
procedure.details: IC50 measurements for binding to CRBN/DDB1 (HTRF)
experimental.conditions: His tagged CRBN+DDB, Cy5-labeled Thalidomide probe, one hour
Recorded measurements of IC50, one per entry
observed.property: IC50

molecule | experimental.target | observed.property | result
CN(C)CC1CCN(Cc2cc(-c3ccc4c(c3)CN(C3CCC(=O)NC3=O)C4=O)nc3[nH]ccc23)C1 (stereo not drawn) | CRBN/DDB1 (Homo sapiens (Human)) | IC50 | 100 to 500 nM
CN(C)c1n[nH]c2c(CN3CCCC3)cc(-c3ccc4c(c3)CN(C3CCC(=O)NC3=O)C4=O)nc12 (stereo not drawn) | CRBN/DDB1 (Homo sapiens (Human)) | IC50 | 5000 to 10000 nM
O=C1CCC(N2Cc3cc(-c4cc(CN5CCCC5c5ccccc5)cn5ccnc45)ccc3C2=O)C(=O)N1 (stereo not drawn) | CRBN/DDB1 (Homo sapiens (Human)) | IC50 | 100 to 500 nM
O=C1CCC(N2Cc3cc(-c4cc(CN5CCCC5)c5c(n4)CCC5)ccc3C2=O)C(=O)N1 (stereo not drawn) | CRBN/DDB1 (Homo sapiens (Human)) | IC50 | 100 to 500 nM
CC(NCc1cc(-c2ccc3c(c2)CN(C2CCC(=O)NC2=O)C3=O)c2nccn2c1)c1ccccc1 (stereo not drawn) | CRBN/DDB1 (Homo sapiens (Human)) | IC50 | 100 to 500 nM
O=C1CCC(N2Cc3cc(-c4cc(CN5CCCC5)c5ccn(C6CNC6)c5n4)ccc3C2=O)C(=O)N1 (stereo not drawn) | CRBN/DDB1 (Homo sapiens (Human)) | IC50 | 500 to 1000 nM
Cc1ccc(CCNCc2cc(-c3ccc4c(c3)CN(C3CCC(=O)NC3=O)C4=O)n3cncc3c2)cc1Cl (stereo not drawn) | CRBN/DDB1 (Homo sapiens (Human)) | IC50 | 1000 to 5000 nM
O=C1CCC(N2Cc3cc(-c4cc(CN5CCCC5)c5ccn(C6CCOCC6)c5n4)ccc3C2=O)C(=O)N1 (stereo not drawn) | CRBN/DDB1 (Homo sapiens (Human)) | IC50 | 100 to 500 nM
Cn1ccc2c(CN3CCCC3)cc(-c3ccc4c(c3)CN(C3CCC(=O)NC3=O)C4=O)nc21 (stereo not drawn) | CRBN/DDB1 (Homo sapiens (Human)) | IC50 | 100 to 500 nM
CCn1ccc2nc(-c3ccc4c(c3)CN(C3CCC(=O)NC3=O)C4=O)cc(CN3CCC3)c21 (stereo not drawn) | CRBN/DDB1 (Homo sapiens (Human)) | IC50 | 1000 to 5000 nM
O=C1CCC(N2Cc3c(ccc(-c4cc(CN5CCCC5)c5ccn(C6COC6)c5n4)c3Cl)C2=O)C(=O)N1 (stereo not drawn) | CRBN/DDB1 (Homo sapiens (Human)) | IC50 | 100 to 500 nM
O=C1CCC(N2Cc3cc(-c4cc(CN5CCCC5)c5c(ccn5CCCO)n4)ccc3C2=O)C(=O)N1 (stereo not drawn) | CRBN/DDB1 (Homo sapiens (Human)) | IC50 | 1000 to 5000 nM
O=C1CCC(N2Cc3cc(-c4cc(CN5CCC(F)C5)c5cc[nH]c5n4)ccc3C2=O)C(=O)N1 (stereo not drawn) | CRBN/DDB1 (Homo sapiens (Human)) | IC50 | 100 to 500 nM
O=C1CCC(N2Cc3c(ccc(-c4cc(CN5CCCC5)c5ccn(C6CS(=O)(=O)C6)c5n4)c3F)C2=O)C(=O)N1 (stereo not drawn) | CRBN/DDB1 (Homo sapiens (Human)) | IC50 | 100 to 500 nM
O=C1CCC(N2Cc3cc(-c4cc(CNCc5cccc6ccccc56)cc5cncn45)ccc3C2=O)C(=O)N1 (stereo not drawn) | CRBN/DDB1 (Homo sapiens (Human)) | IC50 | 1000 to 5000 nM
